Just for reference, patent US20260062430A1 is where these values come from.

# Test system: OVCAR-3 cells
# Measurement notes: In vitro anti-proliferative activity assay in cancer cell line OVCAR-3 (CTG)
# Assay type: cell-based
# Condition parameters: 7-day assay; read-out: OVCAR-3 cellular antiproliferation assay IC50
pIC50: −log10 of the molar value.
Reported endpoint: pIC50

INSERT INTO results (compound, tested_system, observed) VALUES
  ('O=C(Nc1ccnc(N2CCC(F)(F)CC2)n1)c1c(F)cc(NS(=O)(=O)CCO)cc1N1CC[C@@]2(C(F)F)C[C@H]2C1 [Example 84]', 'OVCAR-3 cells', '6.30 to 7.00');

====

# Measurement notes: Caco-2 permeation assay (bidirectional permeability)
# Type: in vitro ADME
# Condition parameters: human, Caco-2, pH 7.4
Reported endpoint: efflux ratio at 2 h, 5 μM

INSERT INTO measurements (structure_smiles_string, observed) VALUES
  ('Cc1cc(NC(=O)c2ccc(NS(=O)(=O)CCO)cc2N2CC[C@]3(C)C[C@@H]3C2)nc(C2CCC(F)(F)CC2)n1', '< 10'),
  ('Cc1cc(NC(=O)c2ccc(NS(=O)(=O)N(C)CCO)cc2N2CC[Si](C)(C)CC2)nc(C2CCC(F)(F)CC2)n1', '< 10'),
  ('Cc1cc(NC(=O)c2ccc(NS(=O)(=O)CCO)cc2N2CC[C@]3(C(F)(F)F)C[C@@H]3C2)nc(N2CCC(F)(F)CC2)n1', '< 10');

====

# Measurement notes: Caco-2 permeation assay (bidirectional permeability)
# Type: in vitro ADME
# Condition parameters: human, Caco-2, pH 7.4
Reported endpoint: efflux ratio at 2 h, 5 μM

INSERT INTO measurements (structure_smiles_string, observed) VALUES
  ('O=C(Nc1ccnc(N2CCC(F)(F)CC2)n1)c1c(F)cc(NS(=O)(=O)CCO)cc1N1CC[C@@]2(C(F)F)C[C@H]2C1', '< 10'),
  ('C[Si]1(C)CCN(c2cc(NS(=O)(=O)CCO)ccc2C(=O)Nc2ccnc(OCCC(F)(F)F)n2)CC1', '< 10'),
  ('Cc1cc(NC(=O)c2ccc(NS(=O)(=O)NCCO)cc2N2CC[Si](C)(C)CC2)nc(C2CCC(F)(F)CC2)n1', '< 10');

====

# Measurement notes: In vivo pharmacokinetic evaluation in mouse
# Set-up: species or system female balb/c nude mice
# Condition parameters: female, balb/c nude, plasma, 3 mg/kg IV
Reported endpoint: clearance (mL/min/kg)

INSERT INTO measurements (compound, reported_endpoint, observed) VALUES
  ('Cc1cc(NC(=O)c2ccc(NS(=O)(=O)CCO)cc2N2CC[Si](C)(C)CC2)nc(N2CCC(F)(F)CC2)n1', 'clearance', 1.7),
  ('Cc1cc(NC(=O)c2ccc(NS(=O)(=O)CCO)cc2N2CC[Si](C)(C)CC2)nc(C2CCC(F)(F)CC2)n1', 'clearance', 3.6),
  ('Cc1cc(NC(=O)c2ccc(NS(=O)(=O)CCO)cc2N2CC[C@@]3(C(F)F)C[C@H]3C2)nc(N2CCC(F)(F)CC2)n1 (single isomer, unassigned) [Example 29b]', 'clearance', 3.3),
  ('Cc1cc(NC(=O)c2ccc(NS(=O)(=O)CCO)cc2N2CC[C@@]3(F)CC[C@H]3C2)nc(N2CCC(F)(F)CC2)n1 (single isomer, unassigned) [Example 50b]', 'clearance', 0.74);
